Target: KRAS G12V (Homo sapiens, UniProt P01116+P62937, G12V)
Sequence (P01116 1-169 isoform P01116-2 G12V limits assumed): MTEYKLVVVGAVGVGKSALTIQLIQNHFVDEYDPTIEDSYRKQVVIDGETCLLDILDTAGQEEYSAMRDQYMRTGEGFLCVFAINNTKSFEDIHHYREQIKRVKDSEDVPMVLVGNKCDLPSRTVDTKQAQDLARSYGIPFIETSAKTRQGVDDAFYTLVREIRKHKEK
Sequence (P62937 whole entry): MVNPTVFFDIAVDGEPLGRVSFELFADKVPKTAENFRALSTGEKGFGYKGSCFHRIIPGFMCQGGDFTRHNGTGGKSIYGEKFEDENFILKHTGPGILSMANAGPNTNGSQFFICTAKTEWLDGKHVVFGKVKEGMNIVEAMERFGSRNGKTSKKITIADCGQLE
Assay: Ras-Raf disruption / FRET / MOA assay (BRAF RBD)
Format: biochemical
Settings: Ras-Raf disruption, with Cyclophilin A; read-out: KRAS G12V FRET data IC50
pIC50: −log10 of the molar value.
Parameter Measured: pIC50

Field: example entries. Status: answers known.
CCn1c(-c2cccnc2[C@H](C)OC)c2c3cc(ccc31)-c1cc(O)cc(c1)C[C@H](NC(=O)[C@H](C(C)C)N(C)C(=O)N1CC(NC(=O)[C@H]3CN3)C1)C(=O)N1CCC[C@H](N1)C(=O)OCC(C)(C)C2 (atropisomer, axis not shown) [Example 189]    7.00 to 8.00
CCn1c(-c2cccnc2[C@H](C)OC)c2c3cc(ccc31)-c1csc(n1)C[C@H](NC(=O)[C@H](C(C)C)N(C)C(=O)N(C)CC1CN(C(=O)[C@@H]3CN3)C1)C(=O)N1CCC[C@H](N1)C(=O)OCC(C)(C)C2 (atropisomer, axis not shown) [Example 294]    6.00 to 7.00
CCn1c(-c2cccnc2[C@H](C)OC)c2c3cc(ccc31)-c1cc(O)cc(c1)C[C@H](NC(=O)[C@@H](COC1CN(C(=O)[C@H]3CN3)C1)C(C)C)C(=O)N1CCC[C@H](N1)C(=O)OCC(C)(C)C2 [Example 312]    5.00 to 6.00

stdin: Look up pIC50: CCn1c(-c2cccnc2[C@H](C)OC)c2c3cc(ccc31)-c1cc(O)cc(c1)C[C@H](NC(=O)[C@H](C(C)C)N(C)C(=O)C1CCN(C(=O)[C@@H]3CN3)CC1)C(=O)N1CCC[C@H](N1)C(=O)OCC(C)(C)C2 [Example 89]
stdout: 6.00 to 7.00

stdin: // repeat for CCn1c(-c2cccnc2[C@H](C)OC)c2c3cc(ccc31)-c1cc(O)cc(c1)C[C@H](NC(=O)[C@H](C(C)C)N(C)C(=O)[C@@H]1CCN(C(=O)[C@@H]3CN3)[C@@H]1C)C(=O)N1CCC[C@H](N1)C(=O)OCC(C)(C)C2 (atropisomer, axis not shown) [Example 208] and report
stdout: 7.00 to 8.00

stdin: Now try CCn1c(-c2cccnc2[C@H](C)OC)c2c3cc(ccc31)-c1cc(O)cc(c1)C[C@H](NC(=O)[C@H](C(C)C)N(C)C(=O)c1ccc(NC(=O)[C@H]3CN3)cn1)C(=O)N1CCC[C@H](N1)C(=O)OCC(C)(C)C2 [Example 127] .
stdout: 6.00 to 7.00

stdin: How about CCn1c(-c2cccnc2[C@H](C)OC)c2c3cc(ccc31)-c1cc(O)cc(c1)C[C@H](NC(=O)[C@H](C(C)C)N(C)C(=O)CC1CN(C(=O)[C@H]3CN3)C1)C(=O)N1CCC[C@H](N1)C(=O)OCC(C)(C)C2 [Example 179] ?
stdout: 6.00 to 7.00

stdin: # repeat for CCn1c(-c2cnccc2COC)c2c3cc(ccc31)-c1cccc(c1)C[C@H](NC(=O)[C@H](C(C)C)N(C)C(=O)CCCN=C=NCCCOC)C(=O)N1CCC[C@H](N1)C(=O)OCC(C)(C)C2 [69 A and B]
stdout: 5.00 to 6.00
